System: HEK-293T
Assay: Multiplex assay against HEK293T
Format: toxicity, cell-based
Details: human, 24 h, 1 µM, compound concentration 1 uM, replicate 1
Property: Population Hoechst High Intensity Objects (%); scope: individual molecules
measurement.type: Population Hoechst High Intensity Objects (%)

1) CC(C)C[C@H](CO)Nc1nc(S[C@@H](C)c2ccccc2)nc2nc(N)sc12: 3
2) OCCCNc1cc(-c2ccnc(Nc3cccc(Cl)c3)n2)ccn1: 14
3) CCCCCCNC(=O)Nc1ccc(S(=O)(=O)Nc2ccc(CCNC[C@H](O)COc3ccc(O)cc3)cc2)cc1: 5
4) C[C@@H]1CC(=O)Nc2cccc(-c3ccc4c(c3)c(-c3cnn(C)c3)nn4C)c2N1: 7
5) S=C(NCCCc1c[nH]cn1)NCCCN(Cc1ccc(Cl)c(Cl)c1)c1ccc(Br)cn1: 22
6) O=c1ccc2ccc(OCCCCN3CCN(c4cccc5sccc45)CC3)cc2[nH]1: 8
7) CCC(=O)OCC(=O)[C@@]1(OC(=O)CC)[C@@H](C)C[C@H]2[C@@H]3CCC4=CC(=O)C=C[C@]4(C)[C@@]3(Cl)[C@@H](O)C[C@@]21C [BECLOMETHASONE DIPROPIONATE]: 4
